TEST_NAME: AUC (0 to 24 hrs) in Sprague-Dawley rat at 30 mg/kg, po in Na salt in 0.5% methocel
Assay type: ADME, organism-based
Set-up: time < 24 hr, dose 30 mg/kg, route oral
RUN_PARAMETERS: plasma
PROPERTY_LABEL: AUC(0-t) at 24 h (µM·h)
Could you give me the number in µM·h? Just the number is fine.

Inquiry: Name the reported AUC(0-t) at 24 h value associated with the compound COCCCc1cc(CN(C(=O)[C@H]2CNCC[C@@H]2c2ccc(OCCOc3c(Cl)cc(C)cc3Cl)cc2)C2CC2)cc(OC[C@H]2C[C@@H]2C(=O)O)c1
Reply text: 0.1
